Tested on: HOP-62
method: NCI tumour cell line growth inhibition, 48 h
Calls of active or inactive are those of the source. Rule as the data show it: active = GI50 up to about 1.1 µM and inactive = higher.
The reply should name one outcome from yes = active, no = inactive

O=C(NCc1ccc2ccc3cccnc3c2n1)c1ccc[n+](Cc2ccccc2)c1    no
CN(C)c1ccc(/C=C2\N=C(c3ccccc3)N(c3nc4c(Cl)cc(Cl)cc4s3)C2=O)cc1    no
CC1=C(C)C(=O)C2=C(OCCO2)C1=O    no
C=C1CC(OC)(C(OC)C(=O)N[C@H]2OCO[C@H]3C2O[C@H](C[C@@H](COC)OC)C(C)(C)C3OC)O[C@H](C)[C@@H]1C (stereo not given in full)    yes
NS(=O)(=O)c1nnc(NSc2ccc([N+](=O)[O-])cc2)s1    no
NC(=S)NNC(=S)NC(=O)c1ccco1    no
Cc1ccc(NC(=O)CCC(=O)C2CC(=O)CCC2=O)cc1C (stereo not given)    no
CC(C)=CCc1c2c(c3occ(-c4ccc(O)cc4)c(=O)c3c1O)CC(C(C)(C)O)O2 (stereo not given)    no
O=C1Nc2ccccc2/C1=N/NC(=S)N1CCCCC1    yes

We next turn to a different molecule, shown below.
// query Assay outcome for Clc1cc(Cl)cc(/C=N/C23CC4CC(CC(C4)C2)C3)c1 : what was it?
// result no
